protocol notes: Solubility of methocarbamol in different vehicles at various pH conditions
Type: physicochemical
condition set: aqueous buffer; pH 6.8 phosphate buffer
quantity name: solubility (mg/mL)
Report the value in mg/mL with no unit label.

Request: So what does the record say about solubility for COc1ccccc1OCC(O)COC(N)=O (stereo not shown) [methocarbamol] ?
Response: 14.1

----------
protocol notes: Solubility of methocarbamol in different vehicles at various pH conditions
Assay type: physicochemical
condition set: aqueous buffer; pH 4.5 acetate buffer
quantity name: solubility (mg/mL)
Report the value in mg/mL with no unit label.

Request: So what does the record say about solubility for COc1ccccc1OCC(O)COC(N)=O (stereo not shown) ?
Response: 16.9
